Entries annotated with measured IC50
Test system: Wee1 kinase domain (Homo sapiens, UniProt P30291)
Construct: Wee1 kinase domain was purchased from Carna (catalog #05-177); purchased Carna 05-177
Sequence (P30291 299-569 limits assumed): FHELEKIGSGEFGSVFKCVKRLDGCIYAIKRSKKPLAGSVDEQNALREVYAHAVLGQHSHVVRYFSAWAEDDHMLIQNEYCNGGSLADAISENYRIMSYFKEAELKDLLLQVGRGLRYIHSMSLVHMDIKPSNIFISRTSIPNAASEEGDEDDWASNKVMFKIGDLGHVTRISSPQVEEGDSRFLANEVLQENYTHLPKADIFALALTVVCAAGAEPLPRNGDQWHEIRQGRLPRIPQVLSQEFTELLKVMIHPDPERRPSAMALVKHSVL
Assay remarks: Wee1 Kinase Biochemical Assay (ADP-Glo)
Condition details: Wee1 kinase domain, 15 uM ATP, ADP-Glo

Worked cases, IC50 given:
[
  {
    "Compound": "CN1CC[C@H](n2cc(Nc3ncc4c(n3)N(c3cccc(N=S(C)(C)=O)n3)[C@H]3CC(C)(C)OC[C@@]43C)cn2)C1 (single isomer, unassigned) [Example 197]",
    "Attribute measured": "IC50",
    "Observed": "100 to 1000 nM"
  },
  {
    "Compound": "C[C@H]1COC(=O)N1c1cccc(N2c3nc(Nc4ccc(C5CCN(C)CC5)nc4)ncc3[C@]3(C)COC(C)(C)C[C@H]23)n1 (single isomer, unassigned) [Example 296]",
    "Attribute measured": "IC50",
    "Observed": "< 10 nM"
  },
  {
    "Compound": "CNCc1cccc(N2c3nc(Nc4ccc([C@@H]5CCCO5)cc4)ncc3C3(C)COC(C)(C)C[C@H]23)n1 (single isomer, unassigned) [Example 57]",
    "Attribute measured": "IC50",
    "Observed": "10 to 100 nM"
  }
]

Write IC50 of Cc1cc(Nc2ncc3c(n2)N(c2cccc(N=S(C)(C)=O)n2)[C@@H]2CC(C)(C)OC[C@]32C)cnn1 (single isomer, unassigned) [Example 370] ; system used: Wee1 kinase domain (Homo sapiens, UniProt P30291)
< 10 nM

Find IC50 for C[C@H]1COC(=O)N1c1cccc(N2c3nc(Nc4ccc(N5C[C@H]6C[C@@H]5CN6C)c(F)c4)ncc3[C@@]3(C)COC(C)(C)C[C@@H]23)n1 (single isomer, unassigned) [Example 291] on Wee1 kinase domain (Homo sapiens, UniProt P30291) and write it down.
< 10 nM

Supply IC50 measured with Wee1 kinase domain (Homo sapiens, UniProt P30291) for C[C@H]1COC(=O)N1c1cccc(N2c3nc(Nc4ccc([C@@]5(C)CCN(C)C5)cc4)ncc3[C@]3(C)COC(C)(C)C[C@H]23)n1 (single isomer, unassigned) [Example 348] .
10 to 100 nM

// output IC50; input C[C@H]1COC(=O)N1c1cccc(N2c3nc(Nc4ccc(N5C[C@H]6C[C@@H]5CN6C)cc4)ncc3[C@]3(C)COC(C)(C)C[C@H]23)n1 (single isomer, unassigned) [Example 246] ; system Wee1 kinase domain (Homo sapiens, UniProt P30291)
10 to 100 nM

Specify IC50 for C[C@H]1COC(=O)N1c1cccc(N2c3nc(Nc4cnn(C5CCN(C)CC5)c4)ncc3[C@@]3(C)COC(C)(C)C[C@@H]23)n1 (single isomer, unassigned) [Example 243] , system Wee1 kinase domain (Homo sapiens, UniProt P30291).
< 10 nM

Report IC50 from Wee1 kinase domain (Homo sapiens, UniProt P30291) testing of CNCc1cccc(N2c3nc(Nc4ccc(N5C(=O)CC[C@@H]5C)cc4)ncc3[C@]3(C)COC(C)(C)C[C@H]23)n1 (single isomer, unassigned) [Example 27]
≥ 1000 nM

Report measured IC50 on Wee1 kinase domain (Homo sapiens, UniProt P30291); entry: Cc1cc(Nc2ncc3c(n2)N(c2cccc(N=S(C)(C)=O)n2)[C@@H]2CC(C)(C)OC[C@]32C)ccc1[C@@H]1CCNC1 (single isomer, unassigned) [Example 143]
< 10 nM

State, for Wee1 kinase domain (Homo sapiens, UniProt P30291), measured IC50 of the compound listed here: CN(C)Cc1cccc(N2c3nc(Nc4ccn(C5CCOCC5)c(=O)c4)ncc3[C@@]3(C)COC(C)(C)C[C@@H]23)n1 (single isomer, unassigned) [Example 387]
< 10 nM

State recorded IC50 with Wee1 kinase domain (Homo sapiens, UniProt P30291), entry CC1(C)C[C@H]2N(c3cccc(N=S(C)(C)=O)n3)c3nc(Nc4ccc(O[C@@H]5CCNC5)cc4)ncc3[C@@]2(C)CO1 (single isomer, unassigned) [Example 155] , no comment.
< 10 nM

Specify the recorded IC50 for CNCc1cccc(N2c3nc(Nc4ccc(N5C[C@@H](C)O[C@@H](C)C5)cc4)ncc3[C@]3(C)COC(C)(C)C[C@H]23)n1 (single isomer, unassigned) [Example 20] , system: Wee1 kinase domain (Homo sapiens, UniProt P30291).
< 10 nM

Recall the reported IC50 of CC1(C)C[C@H]2N(c3cccc(N=S(C)(C)=O)n3)c3nc(Nc4cn(C5COC5)cn4)ncc3[C@@]2(C)CO1 (single isomer, unassigned) [Example 232] on Wee1 kinase domain (Homo sapiens, UniProt P30291) and write it down.
< 10 nM
